- assayMethodText: Displacement of [3H]alpha-bungarotoxin from nAChR in honeybee head membrane after 60 min by scintillation counting
- Assay type: cell membranes, Apis mellifera
readoutName: log10 Ki (log10 of the value in µM)
Please interpret these as log10 of Ki where Ki is in µM.

Below: 8 molecules and their reported log10 Ki.
molecule | log10 Ki
O=[N+]([O-])/N=C1\NCCN1Cc1ccc(Cl)nc1 | 0.40
C[N+](C)(C)CCOC(N)=O | 2.24
CN1CCC[C@@H]1c1cccnc1 | 1.64
C[N+]1(CCCCC[N+]2(C)CCCC2)CCCC1 | 1.86
CCC[C@H]1CCCCN1 | 2.42
C1=C(c2cccnc2)NCC1 [DIHYDRONICOTYRINE] | 0.10
c1cncc(CN2CCCCC2)c1 | 1.69
CCCCNCc1cccnc1 | 2.61

Lab note: measured log10 Ki of CN1CCC[C@H]1c1cccnc1 was 0.17

Kindly note the recorded log10 Ki for c1cncc(C2CCCCN2)c1 (stereo unspecified) , which is 0.59

Record CNCc1cccnc1 . Reported log10 Ki: 2.58

Record summary for COc1cc2c3cc1Oc1cc(ccc1O)C[C@@H]1c4c(cc(OC)c(O)c4Oc4ccc(cc4)C[C@@H]3N(C)CC2)CC[N+]1(C)C : reported log10 Ki = 0.55

Input O=c1cccc2n1C[C@@H]1CNC[C@H]2C1 . Output log10 Ki: -0.19

The reported value for CCN(CC)Cc1cccnc1 in terms of log10 Ki is 2.19

# log10 Ki of CC(C)NCc1cccnc1 = 2.01

The recorded log10 Ki for entry O=C1N(Cc2ccccc2)C2C[S+]3CCCC3C2N1Cc1ccccc1 (stereo unspecified) equals 0.76

Looking up CNC1(C)C2CCC(C2)C1(C)C (stereo unspecified) , I found its log10 Ki recorded as 2.66

So, CCCCN(CCCC)Cc1cccnc1 ? Its log10 Ki was 2.24

Measured log10 Ki of c1cncc([C@@H]2CCCN2)c1 (racemic) : 0.88

# molecule C[N+](C)(C)CCCCCCCCCC[N+](C)(C)C ; its log10 Ki = 2.35

Recorded result, CN1[C@@H]2CC[C@H]1C[C@@H](OC(=O)C(CO)c1ccccc1)C2 (stereo partly specified) , log10 Ki: 1.42

Consider c1cncc(CN2CCCC2)c1 . Its measured log10 Ki is 1.16

Query C[N+]1(C)CCN(c2ccccc2)CC1 yields log10 Ki of 1.69

Sure, the documented log10 Ki for CCCN(CCC)Cc1cccnc1 is 2.30
